The reported measurements were obtained from PubChem BioAssay (NCI).

system: SF-295 CNS; assay: NCI-60 one-dose screen, 48 h (100 = growth as untreated, 0 = no growth, -100 = all killed); details: 10 µM unless noted
This is part of a sample that, as a whole, favours compounds with a hit. Of some 83,000 tested, about 20% had one in any assay.
Please mark class 1 if the recorded growth is equal to or greater than 60%, and class 0 if it falls below.

(Q) hey, is growth for this one >= 60%? CNC1=C([N+](=O)[O-])C(c2ccccc2O)C(C#N)=C(c2cccs2)O1 (configuration not stated)
(A) class 1

(Q) hey, is growth for this one >= 60%? COc1ccc(C(=O)O)cc1.[Ag]
(A) class 1

(Q) hey, is growth for this one >= 60%? COc1cc(/C=C/c2cc(/C=C/c3ccc(O)c(OC)c3)n(C(=O)Nc3ccc(F)c(Cl)c3)n2)ccc1O
(A) class 0

(Q) hey, is growth for this one >= 60%? CCCCCCCCN(CCCCCCCC)C(=O)CCl
(A) class 1

(Q) hey, is growth for this one >= 60%? CCOC(=O)C(Cc1ccccc1)n1c(O)c(/C=N/c2ncc(Cc3ccc(Cl)cc3Cl)s2)sc1=S (configuration not stated)
(A) class 0

(Q) hey, is growth for this one >= 60%? CC(C)c1ccc2c(c1)CCC1C2CCCC1(C)NCc1ccccc1 (configuration not stated)
(A) class 1

(Q) hey, is growth for this one >= 60%? C[C@@H]1CC2C3CCC4=CC(=O)C=C[C@]4(C)[C@@]3(Cl)[C@@H](O)C[C@]2(C)[C@@]1(OC(=O)c1ccco1)C(=O)CCl (some centres not stated)
(A) class 1

###

system: CAKI-1 renal; assay: NCI-60 one-dose screen, 48 h (100 = growth as untreated, 0 = no growth, -100 = all killed); conditions: 10 µM unless noted
About 83,000 compounds went through this panel and 20% of them were active in at least one assay; those are over-represented in the sample as a whole.
Please go through the items and note down their growth.
Just the number please, in %, no unit attached.

(Q) Need growth of O=C1CCCN1C1CCN2CCCc3cccc1c32 (stereo not given) , thanks.
(A) 105

(Q) Need growth of O=C(NCCN1CCCC1)n1cc(-c2ccncc2)c(-c2cc(O)cc(Cl)c2)n1 , thanks.
(A) 109

(Q) Need growth of Clc1cc(Cl)cc(-c2cnc3nonc3n2)c1 , thanks.
(A) 93.5

(Q) Need growth of CCCCOc1nc2ccc(C)cc2cc1/C=C/C(=O)/C=C(O)/C=C/c1cc2cc(C)ccc2nc1OCCCC , thanks.
(A) 98.1

(Q) Need growth of COc1ccccc1CNCCCN1C(=O)c2ccc3c4c(ccc(c24)C1=O)C(=O)N(CCCOCCCCOCCCN)C3=O , thanks.
(A) -4.24

(Q) Need growth of Clc1ccc(Cl)c(N=Cc2ccc3c(c2)OCO3)c1 , thanks.
(A) 94.6

(Q) Need growth of CN(C)CC(=O)c1ccc2cc(Br)c3ccccc3c2c1 , thanks.
(A) 75.4

(Q) Need growth of CC1=C(O)C(=O)CC1 , thanks.
(A) 90.9

(Q) Need growth of O=C1SCN(Cc2ccccc2)CN1Cc1ccccc1 , thanks.
(A) 95.9

(Q) Need growth of CC(C)(C)[Si](C)(C)OC1[C@@H](CNC(N)=O)O[C@@H](n2cnc3c(NC(=O)Nc4ccccc4)ncnc32)[C@H]1O[Si](C)(C)C(C)(C)C (stereo not given in full) , thanks.
(A) 92.2

(Q) Need growth of COc1cc(/C=C\c2cc(/C=C\c3ccc(O)c(OC)c3)n(C(=O)Nc3ccc(C(F)(F)F)cc3)n2)ccc1O , thanks.
(A) 55

(Q) Need growth of CCN(CC)C(=O)O/N=C(/C)c1ccccc1 , thanks.
(A) 115

(Q) Need growth of S=C(Cc1ccccc1)N1CCN(c2ccccc2Cl)CC1 , thanks.
(A) 85.2

(Q) Need growth of C[Si](C)(C)C(c1ccccc1)c1ccccc1 , thanks.
(A) 86.2

(Q) Need growth of Cn1cnc([N+](=O)[O-])c1S(=O)(=O)Oc1cccc2ccccc12 , thanks.
(A) -20.9

(Q) Need growth of CCOC(=O)C#Cc1c(C(=O)OCC)nnn1[C@@H]1O[C@H](COC(C)=O)[C@@H](OC(C)=O)[C@H]1OC(C)=O , thanks.
(A) 4.56

(Q) Need growth of COc1ccc(/C=C(\C#N)c2cc(OC)c(OC)c(OC)c2)cc1 , thanks.
(A) 41.4

(Q) Need growth of CCN(CC)c1ccc(/C=N/NC(=O)C[N+](C)(C)C)cc1 , thanks.
(A) 101

(Q) Need growth of COc1cc(C2C(C#N)=C(N)Oc3cc4c(cc32)OCO4)cc2c1OCO2 (stereo not given) , thanks.
(A) 60.8

(Q) Need growth of N=C(N)c1ccc(-c2ccc(-c3ccco3)o2)cc1F , thanks.
(A) 23.1

(Q) Need growth of O=C(CSc1nc2c(n1Nc1ccccc1)-c1ccccc1SC2)Nc1nccs1 , thanks.
(A) 73.7

(Q) Need growth of O=c1c2cc(Cl)ccc2oc2ccc(OCCCCCN3CCCCC3)cc12 , thanks.
(A) 70.8

(Q) Need growth of O=c1c2cc(Br)cc(Br)c2nc(-c2ccc(Cl)cc2)n1/N=C/c1cccc(F)c1 , thanks.
(A) 14.5

(Q) Need growth of c1ccc2c(N=NSc3ncnc4nc[nH]c34)c3ccccc3nc2c1 , thanks.
(A) 19.7

(Q) Need growth of N#CCCn1cnc2c(N)ncnc21 , thanks.
(A) 97

(Q) Need growth of COc1nccc2c(Sc3ccccc3)nc(N)nc12 , thanks.
(A) 106

(Q) Need growth of CC(C)CCC(=O)[C@@H](C)[C@H]1[C@@H](OC2OCC(O)C(O)C2NS(C)(=O)=O)C[C@H]2[C@@H]3CC=C4C[C@@H](O)CC[C@]4(C)[C@H]3CC[C@]12C (stereo not given in full) , thanks.
(A) 24.1

(Q) Need growth of C=CC(=O)N1CN(C(=O)C=C)CN(C(=O)C=C)C1 , thanks.
(A) 3.54

(Q) Need growth of CN1C(=O)N(C)C2C1NN=c1s/c(=C\c3ccc(C(F)(F)F)cc3)c(=O)n12 (stereo not given) , thanks.
(A) 29.6

(Q) Need growth of COc1ccc(Nc2nc(N)nc3c(=O)[nH]ccc23)cc1 , thanks.
(A) 93.3

(Q) Need growth of c1ccc(CCn2cccc2)nc1 , thanks.
(A) 91.1

(Q) Need growth of CN(C)c1ccc(/C=C\c2cccc[n+]2C)cc1 , thanks.
(A) 42.1

(Q) Need growth of O=C(Nc1ccccc1)c1cc2ccccc2s1 , thanks.
(A) 78.8

(Q) Need growth of CCCCCCCCCCCCC1CCC(=O)O1 (stereo not given) , thanks.
(A) 91.6

(Q) Need growth of C[C@H](NC(=O)c1snnc1C1CC1)c1c(F)cccc1Cl , thanks.
(A) 115

(Q) Need growth of CCc1c(C)c2ccc(O)c(-c3cc(-c4ccccc4)c(C#N)c(=O)[nH]3)c2oc1=O , thanks.
(A) 70

(Q) Need growth of O=C(NNC(=O)c1cccc(Cl)c1)c1ccccc1 , thanks.
(A) 103

(Q) Need growth of N=C(N)c1ccc(-c2ccc(-c3cccs3)s2)cc1F , thanks.
(A) -72.6

(Q) Need growth of COc1ccc(-c2cnc(-c3ccncc3-c3cccc(OC)c3)o2)cc1 , thanks.
(A) 32

(Q) Need growth of CN1C2CCC1/C(=C\c1ccc(Cl)cc1)C(=O)/C2=C/c1ccc(Cl)cc1 , thanks.
(A) 68
